Taken from PubChem BioAssay.

- Procedure Summary: viability loss with induced miR-34 in A549 – imaging, A549 dox-inducible miR-34, nuclei and caspase counts, primary screen (AID 1347080)
- Test Settings: A549 miR-34 inducible, Hoechst nuclei count, 48 h; stronger effect = lower value; cell number ratio, induced over uninduced
Calls of active or inactive are those of the source.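 The calls were made as follows: active = compounds whose cell count with miR-34 switched on is under 0.7 times the count with it off; inactive = the rest.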
Measured fold change accompanies every entry in the list below.

Answered cases to consult:
State the recorded fold change for this entry: "O=C(O)C=Cc1ccccc1O"
0.911 (inactive)

State the recorded fold change for this entry: NC(C(=O)N[C@@H]1C(=O)N2C(C(=O)O)=C(Cl)CS[C@H]12)c1ccccc1 (stereo partly specified)
1.02 (inactive)

Continuing:
State the recorded fold change for this entry: "Cn1nccc1-c1cc(C(=O)NCc2ccc(S(C)(=O)=O)cn2)c(=O)n(-c2cccc(C(F)(F)F)c2)c1"
0.851 (inactive)

State the recorded fold change for this entry: "CN(C)C(=O)/N=N/C(=O)N(C)C"
1.04 (inactive)

State the recorded fold change for this entry: O=C1C2CCCCC2C(=O)N1CCCCN1CCN(c2nsc3ccccc23)CC1 (stereo unspecified)
0.926 (inactive)

State the recorded fold change for this entry: O=c1cc(-c2cccnc2)nc(-c2ccc(CN3CCCC(CO)C3)cc2)[nH]1 (stereo unspecified)
0.899 (inactive)

###

Measured viability accompanies every entry in the list below.
- Procedure Summary: drug combination growth inhibition, ovarian cancer – cell-based, oncology-focused library, rucaparib conditional, profiling panel (AID 1508598)
- Test Settings: patient-derived ovarian cancer cells, CellTiter-Glo viability, 144 h; at 0.0781 µM; OCI-P5x cells; without rucaparib; stronger effect = lower value
Where a SMILES comes first, the peptide text is derived from it. The star is where a group is joined. Cbz = O=C(OCc1ccccc1)*; CH2F = FC*
Write it as a number; the unit % goes unstated.

Answered cases to consult:
State the recorded viability for this entry: COC(=O)C[C@H](NC(=O)[C@H](C)NC(=O)[C@@H](NC(=O)OCc1ccccc1)C(C)C)C(=O)CF (Cbz-Val-Ala-Asp(OMe)-CH2F)
111

State the recorded viability for this entry: CCC1=CC2CN(C1)Cc1c([nH]c3ccccc13)[C@@](C(=O)OC)(c1cc3c(cc1OC)N(C)[C@H]1[C@@](O)(C(=O)OC)[C@H](OC(C)=O)[C@]4(CC)C=CCN5CC[C@@]31[C@H]54)C2 (stereo not given in full)
13.6

State the recorded viability for this entry: "COc1cccc2c1C(=O)c1c(O)c3c(c(O)c1C2=O)C[C@@](O)(C(=O)CO)C[C@H]3O[C@H]1C[C@H](N)[C@@H](O)[C@H](C)O1"
30.8

State the recorded viability for this entry: "CO[C@H]1/C=C\C=C(\C)C(=O)NC2=CC(=O)C(NCCN(C)C)=C(C[C@@H](C)C[C@H](OC)[C@H](O)[C@@H](C)/C=C(\C)[C@@H]1OC(N)=O)C2=O"
9.22

State the recorded viability for this entry: "CN(C)CCOc1ccc(-c2nc(-c3ccc4c(c3)CCC4=NO)c(-c3ccncc3)[nH]2)cc1"
111

Continuing:
State the recorded viability for this entry: "COc1ccccc1-c1cc(Nc2cccc(CS(N)(=O)=O)c2)ncn1"
102

State the recorded viability for this entry: "Nc1nonc1C(=Nc1ccc(F)c(Cl)c1)NO"
100

###

- Procedure Summary: drug combination growth inhibition, ovarian cancer – cell-based, oncology-focused library, rucaparib conditional, profiling panel (AID 1508598)
- Test Settings: patient-derived ovarian cancer cells, CellTiter-Glo viability, 144 h; at 0.0781 µM; OCI-P5x cells; with rucaparib 20 µM; stronger effect = lower value; 100% = cells with rucaparib alone
Parameter Measured: viability (%)
Write it as a number; the unit % goes unstated.

State the recorded viability for this entry: "C=C1/C(=C/C=C2\CCC[C@@]3(C)[C@H]2CC[C@H]3[C@H](C)/C=C/[C@@H](C)C(C)C)C[C@H](O)C[C@@H]1O"
105

State the recorded viability for this entry: "NC(=O)CCCSc1nc(N)nc(-c2c(Cl)cc3c4c(cccc24)COC3)n1"
16.9

State the recorded viability for this entry: "COc1cccc2c1C(=O)c1c(O)c3c(c(O)c1C2=O)C[C@@](O)(C(C)=O)C[C@H]3O[C@H]1C[C@H](N)[C@H](O)[C@H](C)O1"
74.4

State the recorded viability for this entry: "O=C(/C=C/c1ccc2ccccc2n1)c1ccncc1"
51.3

Continuing:
State the recorded viability for this entry: "CCC(C)(C)C(=O)O[C@@H]1C[C@@H](C)C=C2C=C[C@H](C)[C@@H](CC[C@@H]3C[C@@H](O)CC(=O)O3)[C@H]21"
72.4

State the recorded viability for this entry: "CCOc1ccc(Cc2cc([C@@H]3O[C@H](CO)[C@@H](O)[C@H](O)[C@@H]3O)ccc2Cl)cc1"
106

State the recorded viability for this entry: CC(C)CC(CC(=O)NO)C(=O)N[C@@H](Cc1ccc2ccccc2c1)C(=O)N[C@@H](C)C(=O)NCCN (some centres not stated)
90

State the recorded viability for this entry: "C[C@H]1C[C@H]2[C@@H]3CCC4=CC(=O)C=C[C@]4(C)[C@@H]3C(=O)C[C@]2(C)[C@]1(O)C(=O)CO"
102

State the recorded viability for this entry: "COc1ccc(C2=N[C@@H](c3ccc(Cl)cc3)[C@H](c3ccc(Cl)cc3)N2C(=O)N2CCNC(=O)C2)c(OC(C)C)c1"
100

State the recorded viability for this entry: "CC1(C)C=C(CN2C/C(=C/c3ccc(F)cc3)C(=O)/C(=C/c3ccc(F)cc3)C2)C(C)(C)N1O"
102

State the recorded viability for this entry: "CC(C)NCCCn1c(Sc2cc3c(cc2I)OCO3)nc2c(N)ncnc21"
105
